Assay: acute toxicity, intravenous
Assay type: in vivo
Conditions: mouse, in vivo, iv; read-out: Evaluated LD50-range

compound: Nc1ncnc2c1ncn2[C@H]1CO[C@H]2[C@@H]1OC[C@@H]2O[N+](=O)[O-] [1c/2c]
LD50 at 24 h: > 200 mg/kg

----------
Consider the following molecules and their measured blood pressure afterwards readings.
System: guinea pigs
Test: blood pressure-lowering effectiveness on narcotised guinea pigs, intravenous
Format: in vivo, guinea pig
Settings: 2.50 mg/kg i.v.

mol smiles: CN1CCN(c2ncnc3c2ncn3[C@H]2CO[C@H]3[C@@H]2OC[C@@H]3O[N+](=O)[O-])CC1
blood pressure afterwards: 59.75 ± 4.82 mm. Hg
--
mol smiles: CNc1ncnc2c1ncn2[C@H]1CO[C@H]2[C@@H]1OC[C@@H]2O[N+](=O)[O-]
blood pressure afterwards: 61.50 ± 3.23 mm. Hg
--
mol smiles: O=[N+]([O-])O[C@H]1CO[C@H]2[C@@H]1OC[C@@H]2n1cnc2c(N3CCCC3)ncnc21
blood pressure afterwards: 37.25 ± 1.11 mm. Hg

----------
Assay: acute toxicity, p.o. and i.p. (footnote of Table VII)
Type: in vivo
Details: mouse, in vivo, ip

mol smiles: Nc1ncnc2c1ncn2[C@H]1CO[C@H]2[C@@H]1OC[C@@H]2O[N+](=O)[O-]
scale unit: mg/kg
LD50: 540

----------
Test: acute toxicity, intravenous
Assay type: in vivo
Conditions: mouse, in vivo, iv; within 24 hours; read-out: Evaluated LD50-range
measurement type: LD50 at 24 h

mol smiles: CN1CCN(c2ncnc3c2ncn3[C@H]2CO[C@H]3[C@@H]2OC[C@@H]3O[N+](=O)[O-])CC1
measurement type: LD50 at 24 h
assay result: 50 to 100 mg/kg

mol smiles: CNc1ncnc2c1ncn2[C@H]1CO[C@H]2[C@@H]1OC[C@@H]2O[N+](=O)[O-]
measurement type: LD50 at 24 h
assay result: 100 to 200 mg/kg

mol smiles: CN(C)c1ncnc2c1ncn2[C@H]1CO[C@H]2[C@@H]1OC[C@@H]2O[N+](=O)[O-]
measurement type: LD50 at 24 h
assay result: 50 to 100 mg/kg

mol smiles: O=[N+]([O-])O[C@H]1CO[C@H]2[C@@H]1OC[C@@H]2n1cnc2c(N3CCCC3)ncnc21
measurement type: LD50 at 24 h
assay result: 50 to 100 mg/kg

mol smiles: CCNc1ncnc2c1ncn2[C@H]1CO[C@H]2[C@@H]1OC[C@@H]2O[N+](=O)[O-]
measurement type: LD50 at 24 h
assay result: 50 to 100 mg/kg

----------
Test system: guinea pigs
Assay: blood pressure-lowering effectiveness on narcotised guinea pigs, intravenous
Assay type: in vivo, guinea pig
Settings: 0.25 mg/kg i.v.
Consider the following molecules and their measured blood pressure afterwards readings.
measurement type: blood pressure afterwards (mm. Hg)

molecule: CCNc1ncnc2c1ncn2[C@H]1CO[C@H]2[C@@H]1OC[C@@H]2O[N+](=O)[O-]
test target: guinea pigs
measurement type: blood pressure afterwards
assay result: 71.00

molecule: O=[N+]([O-])O[C@@H]1CO[C@H]2[C@@H]1OC[C@@H]2O [ISMN, 1.4;3.6-dianhydro-D-glucitol 2-nitrate, reference compound]
test target: guinea pigs
measurement type: blood pressure afterwards
assay result: 53.90

molecule: CN(C)c1ncnc2c1ncn2[C@H]1CO[C@H]2[C@@H]1OC[C@@H]2O[N+](=O)[O-]
test target: guinea pigs
measurement type: blood pressure afterwards
assay result: 63.25

molecule: O=[N+]([O-])O[C@H]1CO[C@H]2[C@@H]1OC[C@@H]2n1cnc2c(N3CCCC3)ncnc21
test target: guinea pigs
measurement type: blood pressure afterwards
assay result: 51.50

----------
Tested on: isolated rat aorta preparations
Experiment: spasmolytic effectiveness, potassium chloride-induced contractions
Conditions: read-out: ED50 potassium chloride spasm
measurement type: IC50

compound: Nc1ncnc2c1ncn2[C@H]1CO[C@H]2[C@@H]1OC[C@@H]2O[N+](=O)[O-] [1c/2c]
assay result: 2.8 µM

compound: CC(C)(C)C(=O)Nc1ncnc2c1ncn2[C@H]1CO[C@H]2[C@@H]1OC[C@@H]2O[N+](=O)[O-] [Example 10]
assay result: 6.5 µM

compound: CN(C)c1ncnc2c1ncn2[C@H]1CO[C@H]2[C@@H]1OC[C@@H]2O[N+](=O)[O-] [Example 4b]
assay result: 29 µM

compound: CNc1ncnc2c1ncn2[C@H]1CO[C@H]2[C@@H]1OC[C@@H]2O[N+](=O)[O-] [Example 3c]
assay result: 4.6 µM

compound: O=[N+]([O-])O[C@H]1CO[C@H]2[C@@H]1OC[C@@H]2n1cnc2c(N3CCCCC3)ncnc21 [Example 7b]
assay result: 2.9 µM

compound: O=[N+]([O-])O[C@H]1CO[C@H]2[C@@H]1OC[C@@H]2n1cnc2c(N3CCOCC3)ncnc21 [Example 8b]
assay result: 3 µM

compound: CN1CCN(c2ncnc3c2ncn3[C@H]2CO[C@H]3[C@@H]2OC[C@@H]3O[N+](=O)[O-])CC1 [Example 9b]
assay result: 25 µM

----------
System: guinea pigs
Assay: blood pressure-lowering effectiveness on narcotised guinea pigs, intravenous
Type: in vivo, guinea pig
Details: 2.50 mg/kg i.v.
Consider the following compounds and their measured blood pressure afterwards readings.

compound: O=[N+]([O-])O[C@@H]1CO[C@H]2[C@@H]1OC[C@@H]2O [ISMN, 1.4;3.6-dianhydro-D-glucitol 2-nitrate, reference compound]
blood pressure afterwards [mm. Hg]: 41.40
--
compound: CN(C)c1ncnc2c1ncn2[C@H]1CO[C@H]2[C@@H]1OC[C@@H]2O[N+](=O)[O-]
blood pressure afterwards [mm. Hg]: 43.50
--
compound: Nc1ncnc2c1ncn2[C@H]1CO[C@H]2[C@@H]1OC[C@@H]2O[N+](=O)[O-]
blood pressure afterwards [mm. Hg]: 38.75
--
compound: CCNc1ncnc2c1ncn2[C@H]1CO[C@H]2[C@@H]1OC[C@@H]2O[N+](=O)[O-]
blood pressure afterwards [mm. Hg]: 51.00

----------
Consider the following compounds and their measured blood pressure Δ readings.
Tested on: guinea pigs
Assay: blood pressure-lowering effectiveness on narcotised guinea pigs, intravenous
Assay type: in vivo, guinea pig
Settings: 0.25 mg/kg i.v.
measurement type: blood pressure Δ

mol smiles: CN1CCN(c2ncnc3c2ncn3[C@H]2CO[C@H]3[C@@H]2OC[C@@H]3O[N+](=O)[O-])CC1
assay result: -2.25 mm. Hg
--
mol smiles: CNc1ncnc2c1ncn2[C@H]1CO[C@H]2[C@@H]1OC[C@@H]2O[N+](=O)[O-]
assay result: -0.25 mm. Hg
--
mol smiles: CCNc1ncnc2c1ncn2[C@H]1CO[C@H]2[C@@H]1OC[C@@H]2O[N+](=O)[O-]
assay result: -5.50 mm. Hg
--
mol smiles: CN(C)c1ncnc2c1ncn2[C@H]1CO[C@H]2[C@@H]1OC[C@@H]2O[N+](=O)[O-]
assay result: -10.50 mm. Hg
--
mol smiles: Nc1ncnc2c1ncn2[C@H]1CO[C@H]2[C@@H]1OC[C@@H]2O[N+](=O)[O-]
assay result: -17.75 mm. Hg
--
mol smiles: O=[N+]([O-])O[C@H]1CO[C@H]2[C@@H]1OC[C@@H]2n1cnc2c(N3CCCC3)ncnc21
assay result: -13.50 mm. Hg

----------
Tested on: isolated rat aorta preparations
Assay: spasmolytic effectiveness, potassium chloride-induced contractions
Conditions: read-out: ED50 potassium chloride spasm
Consider the following compounds and their measured IC50 readings.

compound: Cn1c(=O)c2c(ncn2[C@H]2CO[C@H]3[C@@H]2OC[C@@H]3O[N+](=O)[O-])n(C)c1=O [Example 12b]
IC50, µM: 4.2

compound: CCNc1ncnc2c1ncn2[C@H]1CO[C@H]2[C@@H]1OC[C@@H]2O[N+](=O)[O-]
IC50, µM: 13

compound: O=[N+]([O-])O[C@H]1CO[C@H]2[C@@H]1OC[C@@H]2n1cnc2c(N3CCCC3)ncnc21
IC50, µM: 4.07

compound: O=[N+]([O-])O[C@H]1CO[C@H]2[C@@H]1OC[C@@H]2n1cnc2c(NCc3ccccc3)ncnc21 [Example 13b]
IC50, µM: 2.4

----------
System: female NMRI-albino mice
Experiment: acute toxicity, intravenous
Type: in vivo
Conditions: 100 mg/kg i.v.; within 24 hours
Consider the following molecules and their measured Frequency of death readings.

mol smiles: CN1CCN(c2ncnc3c2ncn3[C@H]2CO[C@H]3[C@@H]2OC[C@@H]3O[N+](=O)[O-])CC1
Frequency of death: 4/6
//
mol smiles: CCNc1ncnc2c1ncn2[C@H]1CO[C@H]2[C@@H]1OC[C@@H]2O[N+](=O)[O-]
Frequency of death: 3/6
//
mol smiles: O=[N+]([O-])O[C@H]1CO[C@H]2[C@@H]1OC[C@@H]2n1cnc2c(N3CCCC3)ncnc21
Frequency of death: 3/3
//
mol smiles: CNc1ncnc2c1ncn2[C@H]1CO[C@H]2[C@@H]1OC[C@@H]2O[N+](=O)[O-]
Frequency of death: 0/6
//
mol smiles: CN(C)c1ncnc2c1ncn2[C@H]1CO[C@H]2[C@@H]1OC[C@@H]2O[N+](=O)[O-]
Frequency of death: 3/3
